Here, each record is paired with measured Stability of Plant-Derived Cannabinoid Compounds in Powder Concentrate data.
# assayComment: Stability of cannabinoid entourage and Vitamin E components of the powder concentrate by LCMSMS
# Type: physicochemical
# conditionNotes: powder stored at 21-25° C.; 19 days
observedProperty: Stability of Plant-Derived Cannabinoid Compounds in Powder Concentrate (mg/g powder)

| compound | val |
| --- | --- |
| CCCCCc1cc(O)c2c(c1)OC1(C)CCC3C1C2C3(C)C (stereo not shown) | 0.052 |
| CCCCCc1cc(O)c2c(c1)OC(C)(C)[C@@H]1CCC(C)=C[C@@H]21 [D9 THC, delta-9-tetrahydrocannabinol, reference compound] | 2.51 |
| CCCc1cc(O)c2c(c1)OC(C)(C)[C@@H]1CCC(C)=C[C@@H]21 [THCV, delta-9-tetrahydrocannabivarin] | 0.705 |
| C=C(C)[C@@H]1CCC(C)=C[C@H]1c1c(O)cc(CCCCC)c(C(=O)O)c1O | 0.414 |
| CCCCCc1cc2c(c(O)c1C(=O)O)[C@@H]1C=C(C)CC[C@H]1C(C)(C)O2 [D9 THCA, delta-9-tetrahydrocannabinolic acid] | 0.146 |
| C=C(C)[C@@H]1CCC(C)=C[C@H]1c1c(O)cc(CCCCC)cc1O [CBD, cannabidiol, reference compound] | 5.74 |
| CCCCCc1cc(O)c2c(c1)OC(C)(C)c1ccc(C)cc1-2 | 0.490 |

Each recorded value in this set is attributed to patent US20260130395A1.
